- Tested on: Es-2
- ASSAY_METHOD_TEXT: Primary qHTS to identify gynecologic anti-cancer compounds using libraries of approved drugs and bioactive compounds (AID 1345084); further: nearly all actives have a fitted effect of over 55% in size
- STATED_CONDITIONS: Gynecologic cancer cell panel viability, ATPlite luminescence, 48 h; series mostly up to 57.5 µM
Results filed as inconclusive are left out. Calls of active or inactive are those of the source. The call rests on the fitted dose curve; in most records, active means well fitted cell-killing curve with a large enough effect; inconclusive means small, poorly fitted or top-dose-only effect, or effect the other way; inactive means flat fitted curve, though single readings scatter.
Classes used: active, inactive

>>> df
                                    molecule     group
 0  C#Cc1cccc(Nc2ncnc3cc(OC)c(OCCCCCCC(=O)NO)cc23)c1    active
 1  COc1cc(C)c(Sc2cnc(NC(=O)c3ccc(CNC(C)C(C)C)cc3)s2)cc1C(=O)N1CCN(C(C)=O)CC1 (centres undefined)  inactive
 2  Cc1ccc(C(=O)Nc2cccc(C(F)(F)F)c2)cc1-c1ccc2nc(NCCN3CCOCC3)ncc2c1    active
 3  CNC(=O)CN1CCC(Oc2cc3c(Nc4cccc(Cl)c4F)ncnc3cc2OC)CC1  inactive
 4  COc1ccc(F)c(F)c1C(=O)c1cnc(NC2CCN(S(C)(=O)=O)CC2)nc1N    active
 5  Cn1cc(-c2ccncc2)c(-c2ccc(OCc3ccc4ccccc4n3)cc2)n1  inactive
 6  C=CC(=O)Nc1cc2c(Nc3ccc(F)c(Cl)c3)ncnc2cc1OCCCN1CCOCC1  inactive
 7   OCCCNc1cc(-c2ccnc(Nc3cccc(Cl)c3)n2)ccn1    active
 8  CNC(=O)c1c(F)cccc1Nc1nc(Nc2cc3c(cc2OC)CCN3C(=O)CN(C)C)nc2[nH]ccc12  inactive
 9  Nc1cccc(-c2cc3c(Oc4cccc(O)c4)ncnc3[nH]2)c1  inactive
10  Cc1cn2c(-c3cn[nH]c3)cnc2c(Nc2ccc(C(=O)N3CCNCC3)cc2F)n1  inactive
11  COC(=O)C1=C(C)NC(C)=C(C(=O)OCCN2CCN(C(c3ccccc3)c3ccccc3)CC2)C1c1cccc([N+](=O)[O-])c1 (centres undefined)  inactive
12  CCCNC(=O)Nc1ccc(Oc2ncnc3cc(OC)c(OC)cc23)cc1Cl  inactive
13  NCC(=O)Nc1ccc(-n2nc(C(F)(F)F)cc2-c2ccc3c(ccc4ccccc43)c2)cc1  inactive
14  NC(=O)Nc1cc(-c2cccc(F)c2)sc1C(=O)N[C@H]1CCCNC1    active
15  CC(C)(C)c1cc(NC(=O)Nc2ccc(-c3cn4c(n3)sc3cc(OCCN5CCOCC5)ccc34)cc2)no1  inactive
16  Cc1nc(Nc2n[nH]c3c2CN(C(=O)N[C@H](CN(C)C)c2ccccc2)C3(C)C)c2sccc2n1    active
17  CCCCCN(CCC12CC3CC(CC(C3)C1)C2)C(=O)NCCCc1ccncc1  inactive
18  COC(=O)Nc1ccc(-c2nc(N3CCOCC3)c3cnn(C4CCN(Cc5cccnc5)CC4)c3n2)cc1    active

* * *

- ASSAY_METHOD_TEXT: qHTS of pediatric cancer cell lines to identify multiple opportunities for drug repurposing: Confirmatory screen for SK-N-SH cells (AID 1347129);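 further: cells exposed to compound for 48 h before viability read; nearly all actives have a fitted effect of over 60% in size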
- STATED_CONDITIONS: SK-N-SH neuroblastoma cell viability; series mostly up to 46.1 µM
Results filed as inconclusive are left out. Active and inactive are the calls of the source. Calls follow the shape of the dose curve; as a rule, active = well fitted cell-killing curve with a large enough effect; inconclusive = small, poorly fitted or top-dose-only effect; inactive = flat fitted curve, though single readings scatter.
Classes used: active, inactive

                              smiles_record     group
0  CC(C)(C)c1cc(NC(=O)Nc2ccc(-c3cn4c(n3)sc3cc(OCCN5CCOCC5)ccc34)cc2)no1    active
1  CN1CCN(Cc2ccc(NC(=O)Nc3ccc(Oc4cc(NC(=O)C5CC5)ncn4)cc3)cc2C(F)(F)F)CC1    active
2  Nc1cc(C(F)(F)F)c(-c2cc(N3CCOCC3)nc(N3CCOCC3)n2)cn1    active
3  CC(C)[C@H](C(=O)Nc1ccc(C(=O)NO)cc1)c1ccccc1  inactive
4  Cc1[nH]c2ccccc2c1CCNCc1ccc(C=CC(=O)NO)cc1    active

* * *

- ASSAY_METHOD_TEXT: Quantitative High-Throughput drug screen in 47 multiple myeloma cell lines against the NCATS MIPE library collection: MMM1_PLB cell viability assay (AID 1918976); further: potency means the concentration at half of the fitted maximal effect; nearly all actives have a fitted effect of over 35% in size
- STATED_CONDITIONS: MMM1 myeloma cells viability, CellTiter-Glo, 48 h; series mostly up to 45.8 µM
Records with an inconclusive call do not appear. The source made the active and inactive calls. The call rests on the fitted dose curve; in most records, active means well fitted cell-killing curve with a large enough effect; inconclusive means small, poorly fitted or top-dose-only effect, or effect the other way; inactive means no such curve, though single readings can be large or run the other way.
PROPERTY_MEASURED: Potency

In [3]: df
Out[3]:
                              smiles_record    value_observed
0  CC(=O)OCC(=O)[C@@]1(O)[C@H](C)C[C@H]2[C@@H]3C=C(C)C4=Cc5c(cnn5-c5ccccc5)C[C@]4(C)[C@@H]3[C@@H](O)C[C@@]21C  16.6 µM (active)
1  Cc1ccc(C(=O)Nc2ccc(CN3CCN(C)CC3)c(C(F)(F)F)c2)cc1C#Cc1cnc2cccnn12  7.43 µM (active)
2  O=C(CCCCCCC(=O)Nc1ccc([C@H]2O[C@@H](CSc3nc(-c4ccccc4)c(-c4ccccc4)o3)C[C@@H](c3ccc(CO)cc3)O2)cc1)NO  13.2 µM (active)
3  COc1cc2c(NC3CCN(C(C)C)CC3)nc(C3CCCCC3)nc2cc1OCCCN1CCCC1  6.62 µM (active)

* * *

- ASSAY_METHOD_TEXT: Quantitative High-Throughput drug screen in 47 multiple myeloma cell lines against the NCATS MIPE library collection: XG6_PLB cell viability assay (AID 1919865); further: nearly all actives have a fitted effect of over 40% in size
- STATED_CONDITIONS: XG6 myeloma viability, CellTiter-Glo ATP luminescence, 48 h; series mostly up to 45.8 µM
Inconclusive results are not listed. The source made the active and inactive calls. Calls follow the shape of the dose curve; as a rule, active = well fitted cell-killing curve with a large enough effect; inconclusive = small, poorly fitted or top-dose-only effect, or effect the other way; inactive = no such curve, though single readings can be large or run the other way.
Classes used: True (active), False (inactive)

COMPOUND	GROUP
Cc1nc(Nc2n[nH]c3c2CN(C(=O)N[C@H](CN(C)C)c2ccccc2)C3(C)C)c2sccc2n1	True
Nc1ccccc1NC(=O)c1ccc(CNC(=O)OCc2cccnc2)cc1	True
C[C@H]1C[C@@H]2[C@@H]([C@@H](O)C[C@@]3(C)[C@H]2CC[C@]3(O)C(=O)CO)[C@@]2(C)C=CC(=O)C=C12	False
CC(=O)Nc1nc(C)c(-c2ccc(Cl)c(S(=O)(=O)NCCO)c2)s1	True
CC(C)[C@H](C(=O)Nc1ccc(C(=O)NO)cc1)c1ccccc1	True
CC(NCc1ccc2c(c1)nc(NC(=O)c1ccc(-c3cn[nH]c3)s1)n2CC(C)(C)O)C(C)(C)C (centres undefined)	True
COc1cc2c(Oc3ccc4[nH]c(C)cc4c3F)ncnc2cc1OCCCN1CCCC1	True
COc1ccc2c(c1)CC[C@@H](CN(C)CC(=O)O)[C@H]2c1ccccc1	True
C[C@@H]1CN(CC(=O)Nc2ccc3c(c2)Cc2cccc(-c4cc(=O)cc(N5CCOCC5)o4)c2S3)C[C@H](C)O1	True
Nc1ccccc1NC(=O)c1ccc(CNc2nccc(-c3cccnc3)n2)cc1	True
CC=CC1=C(C(=O)O)N2C(=O)[C@H](NC(=O)[C@H](N)c3ccc(O)cc3)[C@@H]2SC1	False
O=C(O)C1(Cc2cccc(Nc3nccs3)n2)CCC(Oc2cccc(Cl)c2F)CC1 (centres undefined)	True
OCc1ccc(-c2ccc(-c3ccc(CO)s3)o2)s1	True
c1ccc2c(CCNc3ccc(Nc4ccncc4)cc3)c[nH]c2c1	True
CC1(C)CCC(c2ccc(Cl)cc2)=C(CN2CCN(c3ccc(C(=O)NS(=O)(=O)c4ccc(N[C@H](CCN5CCOCC5)CSc5ccccc5)c(S(=O)(=O)C(F)(F)F)c4)cc3)CC2)C1	True
O=C(C=Cc1cccc(S(=O)(=O)Nc2ccccc2)c1)NO	True
COc1ccc2c(OCc3nnc4ccc(-c5ccccc5)nn34)ccnc2c1	True
CN1CCN(Cc2ccc(NC(=O)Nc3ccc(Oc4cc(NC(=O)C5CC5)ncn4)cc3)cc2C(F)(F)F)CC1	True
COc1cc(OC2CCN(C)CC2)ccc1Nc1ncc2c(n1)n(C1CCCC1)c(=O)n2C	True

* * *

- Tested on: CP191
- ASSAY_METHOD_TEXT: qHTS profiling for inhibitors of Plasmodium falciparum proliferation (AID 504749); further: nearly all actives have a fitted effect of over 60% in size
- STATED_CONDITIONS: P. falciparum in erythrocytes, SYBR Green DNA, 72 h; series mostly up to 28.7 µM
Records with an inconclusive call do not appear. The source made the active and inactive calls. Calls come from the whole dose curve; as a rule, active = well fitted inhibition curve with a large enough effect; inconclusive = small, poorly fitted or top-dose-only effect; inactive = flat fitted curve, though single readings scatter.
Classes used: active, inactive

SMILES_RECORD	SYSTEM_TESTED	GROUP
Nc1ccn([C@@H]2O[C@H](CO)[C@H](O)C2(F)F)c(=O)n1	CP191	active
C[C@H]1C[C@@H]2[C@@H]([C@@H](O)C[C@@]3(C)[C@H]2CC[C@]3(O)C(=O)CO)[C@@]2(C)C=CC(=O)C=C12	CP191	inactive
CCC1=C[C@@H]2CN(C1)Cc1c([nH]c3ccccc13)[C@@](C(=O)OC)(c1cc3c(cc1OC)N(C)[C@@H]1[C@@](O)(C(=O)OC)[C@H](OC(C)=O)[C@]4(CC)C=CCN5CC[C@]31[C@@H]54)C2	CP191	active
CC1(C)O[C@@H]2C[C@@H]3[C@H]4C[C@@H](F)C5=CC(=O)C=C[C@]5(C)[C@@]4(F)[C@@H](O)C[C@]3(C)[C@]2(C(=O)CO)O1	CP191	inactive

This collection of values is drawn from PubChem BioAssay (NCATS).
